Here, compounds appear alongside IC50 reported for Vascular endothelial growth factor receptor 1 (Homo sapiens, UniProt P17948) in the literature.

Look over these answered cases.
{"SAMPLE_SMILES": "COCCOc1ccc(Nc2ncnc(Nc3ccc(C)c(O)c3)n2)cc1OC", "IC50": "< 1.01 µM"}
{"SAMPLE_SMILES": "COCCN1CCC(Nc2ccc3c(c2)/C(=C(\\c2cccc(OC)c2)c2nc4ccccc4[nH]2)C(=O)N3)CC1", "IC50": "0.05 to 0.5 µM"}

Hey, Vascular endothelial growth factor receptor 1 (Homo sapiens, UniProt P17948) data for Cc1ccc(S(=O)(=O)NCc2c[nH]c3nccc(-c4cccc(C#N)c4)c23)cc1 : IC50 came out at ≤ 10 µM

Value sought: IC50, system Vascular endothelial growth factor receptor 1 (Homo sapiens, UniProt P17948), item COC(=O)CCCCS(=O)(CCCCC(=O)OC)=NC(=O)c1cnc(N)c(C#Cc2cccc(C(=O)Nc3cc(C)ccc3F)c2)c1 . Result: 0.014 µM

---

pIC50: −log10 of the molar value.
Please find below pIC50 data on UniProt:P17948 compiled from the literature.

Sample answers from the record:
{"SAMPLE_SMILES": "COc1cc(Nc2ncnc(N(C/C=C/c3ccccc3)c3ccc(Cl)cc3)n2)cc(OC)c1OC", "pIC50": "5.16 to 5.32"}
{"SAMPLE_SMILES": "Cn1cc(-c2cnc3[nH]cc(Cc4cc(F)c(OCc5nc6ccccc6[nH]5)cc4Cl)c3c2)cn1", "pIC50": "≥ 5.00"}

Next, consider the following compound.
Observed pIC50 on UniProt:P17948, entry CCCS(=O)(=O)Nc1ccc(F)c(C(=O)c2c[nH]c3nccc(OC)c23)c1F , equals ≥ 5.00
